- Test system: OVCAR-5 ovarian
- Experimental protocol: NCI-60 one-dose screen, 48 h (100 = growth as untreated, 0 = no growth, -100 = all killed)
- Condition notes: 10 µM
- Protocol: Growth inhibition of the OVCAR-5 human tumor cell line is measured as a screen for anti-cancer activity. Cells are grown in 96 well plates and exposed to the test compound for 48 hours. Compounds are tested at a single concentration, which is 10^-5 M for most compounds. The reported endpoint is percent growth (GI% or GIPRCNT), where numbers from 0 - 100% represent growth inhibition, and numbers from -100% - 0 represent cell death. For example, a value of 40 represents 60% growth inhibition. […]
The panel holds about 83,000 compounds, 20% with a hit somewhere; the sample as a whole holds those more often.
Could you please classify the records by growth using these ranges: class A = under 60%, class B = from 60% up to 90%, class C = 90% and over

Molecule	Assigned category
Cc1ccc(-n2nnnc2N)c(C)c1	class C
COc1ccc(-c2nn(-c3cccc(Cl)c3)cc2-c2c(C#N)c(N)n(N)c(=O)c2C#N)cc1	class B
COc1cc(C(=O)/C=C/c2c[nH]c3ccccc23)cc(OC)c1OC	class A
O=C1c2ccccc2C(=O)c2c1ccc(C(Br)Br)c2Cl	class C
S=c1cnc2ccccc2[nH]1	class C
COc1cc(-c2nn(-c3cccc(NC(=O)CCN4CCN(Cc5ccccc5)CC4)c3)cc2-c2ccncc2)ccc1Cl	class A
C=CCNCCN1C(=O)c2ccc3c4c(ccc(c24)C1=O)C(=O)N(CCNCC=C)C3=O	class A
COc1ccc(CCN2CCC(Nc3nc4ccccc4n3Cc3ccc(F)cc3)CC2)cc1	class A
CC(=O)O[C@@]12CO[C@@H]1C[C@H](O)[C@@]1(C)C(=O)[C@H](O)C3=C(C)[C@@H](OC(=O)[C@H](O)[C@@H](NC(=O)OC(C)(C)C)c4ccccc4)C[C@@](O)([C@@H](OC(=O)c4ccccc4)C12)C3(C)C (stereo not given in full)	class A
N#Cc1c(-c2ccc(Cl)cc2)n(O)c2ccccc12	class B
O=C(Nc1ccc(OCc2nnc(-c3ccc(Cl)cc3)o2)c(F)c1)Nc1ccc(Cl)c(C(F)(F)F)c1	class A
COc1cc(-c2csc(NC(=O)Nc3ccc(Cl)c(C(F)(F)F)c3)n2)cc(OC)c1OC	class A
COc1ccc(/C=C/c2nnc(/C=C/c3ccc(OC)c(OC)c3)o2)cc1OC	class A
COc1ccc(-c2cc(-c3ccc(Cl)cc3)nc(SCCCC(=O)NO)n2)cc1	class A
COc1ccc(C(=O)c2ccccc2CN2C(=O)c3ccccc3C2=O)cc1	class C
O=C(CCCSc1nc(-c2ccccc2)cc(-c2ccc(Cl)cc2)n1)NO	class A
CC[N+](CC)=c1ccc2nc3c(cc(NCc4ccccc4)c4ccccc43)oc-2c1	class A
CS(=O)(=O)c1nccc(-c2c(-c3cccc(OCCc4ccccc4)c3)nc3sccn23)n1	class C
Nc1ccc(CC[C@H]2CCC/C=C/[C@@H]3C[C@H](O)C[C@H]3[C@H](O)/C=C/C(=O)O2)cc1	class A
CCOC(=O)CN(c1sc(C)c(C)c1C(=O)OCC)S(=O)(=O)c1ccc(C)cc1	class C
Cc1c2cnccc2c(C)c2c1oc1ccccc12	class B
Clc1ccc2c(c1)C(N1CCNCC1)=Nc1ccccc1O2	class B
CC(=O)OC/C=C(/C)C[P+](c1ccccc1)(c1ccccc1)c1ccccc1	class B
Nc1nccc(OCCO)n1	class C
CCn1c(SCCc2ccccc2)nnc1-c1nn(-c2ccc(Cl)cc2Cl)c(-c2ccc(Cl)cc2)c1C	class B
Oc1cccc(-c2nc3sccn3c2-c2ccncn2)c1	class C
Cc1c[nH]c(=O)n(Cc2nnc(CCC(=O)c3nc4ccccc4[nH]3)o2)c1=O	class A
Fc1ccc(C(c2ccc(F)cc2)C(Cl)Cl)cc1	class C
COc1ccc(C2=Cn3c(CCC(=O)c4nc5ccccc5[nH]4)nnc3SC2)cc1	class C
CN1C(=O)C2(Nc3cc(Cl)ccc3S2)c2cc(Cl)ccc21 (stereo not given)	class C
CCOC(=O)C1=CSC2=NC3=C(CCC/C3=C\c3ccc(Cl)cc3)C(c3ccc(Cl)cc3)N12 (stereo not given)	class C
CCNCC(=O)Nc1ccc(C(=O)OCC)cc1	class C
COc1ccccc1N1CCCSC1=Nc1ccccc1	class C
Cc1cn(-c2cccc(NC(=O)c3ccc(C)c(Nc4nccc(-c5cccnc5)n4)c3)c2)cn1	class A

---

- Tested on: U251 CNS
- Experimental protocol: NCI-60 one-dose screen, 48 h (100 = growth as untreated, 0 = no growth, -100 = all killed)
- Condition notes: 10 µM
The panel holds about 83,000 compounds, 20% with a hit somewhere; the sample as a whole holds those more often.
Readings of growth for the listed compounds
Metric: growth (%)

Compound	Readout value
Cc1c(Cl)cccc1NC(=O)CN1CCOCC1	106
CNC(=O)c1cn2c3c(c(N4CCN(C)CC4)c(F)cc3c1=O)OC[C@@H]2C	99.5
Nc1nc(Cl)nc2c1ncn2C1O[C@H](CO)[C@@H](O)[C@@H]1F (stereo not given in full)	27
C[N+]1(CCCCC[N+]2(C)CCCC2)CCCC1	108
O=C(NCCCNS(=O)(=O)c1ccc(Cl)cc1)Nc1ccc(-n2cc(-c3ccncc3)c(-c3ccc(Cl)c(O)c3)n2)cc1	37.6
O=C1C=C(Nc2cccc(Br)c2)c2ccccc2C1=O	31.3
COc1cc(-c2ccc[nH]2)[nH]c1/C=C1\N=C(C)C(C(=O)NC(C)C)=C1C	31.4
COc1ccc(-c2cc(-c3cc(OC)ccc3OC)nc(N)c2C#N)cc1	61.2
Cc1c(O)c(=O)ccn1C1CCC(CC2CCC(n3ccc(=O)c(O)c3C)CC2)CC1 (stereo not given)	30.2
CS(=O)(=O)c1nccc(-c2c(-c3cccc(OCCN4CCOCC4)c3)nc3sccn23)n1	86.6

---

- System: NCI/ADR-RES ovarian
- Experimental protocol: NCI-60 one-dose screen, 48 h (100 = growth as untreated, 0 = no growth, -100 = all killed)
- Condition notes: 10 µM
The panel holds about 83,000 compounds, 20% with a hit somewhere; the sample as a whole holds those more often.
Metric: growth (%)

Molecule	Readout value
COc1ccc(-c2nc(-c3nc4ccc(C)cc4[nH]3)cc3c2[nH]c2ccccc23)cc1	19.4
CC(C)(C)OC(=O)CN1CCc2c(sc3ncnc(N/N=C/c4ccccc4Br)c23)C1	71.7
O=C(Nc1ccc(OS(=O)(=O)c2ccccc2)cc1)C1CCCCC1	88.3
COc1ccccc1-n1c(-c2csc(NC(C)=O)n2)n[nH]c1=S	96.2
C(=N\Nc1ncnc2sc3c(c12)CCNC3)/c1cccc2ccccc12	75.4
O=C1CC(SC(=S)C2CCCC2=O)C(=O)N1 (stereo not given)	104
Clc1ccc(/C=C2\CCCC3C2=Nc2ccccc2NC3c2ccc(Cl)cc2)cc1 (stereo not given)	99.4
O=S(=O)(NCCCNc1nccc(-c2cn(-c3ccccc3)nc2-c2ccc(Cl)c(O)c2)n1)c1ccccc1	33.3
O=C1c2c(c3c4ccccc4n(CCCCCCN4CCOCC4)c3c3[nH]c4ccccc4c23)C(=O)N1O	43.9
CCOC(=O)CN(c1sc(C)c(C)c1C(=O)OCC)S(=O)(=O)c1ccc(C)cc1	88

---

Readings of growth for the listed compounds
- System: K-562 leukemia
- Experimental protocol: NCI-60 one-dose screen, 48 h (100 = growth as untreated, 0 = no growth, -100 = all killed)
- Condition notes: 10 µM
Compounds without any hit were thinned out: in the full panel of roughly 83,000, 20% have a hit.

Compound	Unit symbol	growth
O=C(Nc1ccc(OCc2nnc(-c3ccc(Cl)cc3)o2)c(F)c1)Nc1ccc(Cl)c(C(F)(F)F)c1	%	11.2
O=[N+]([O-])c1ccc2ncccc2c1Cl	%	12.1
COc1ccc(-c2nn(-c3cccc(Cl)c3)cc2-c2cc(-c3ccccc3)[nH]c(=O)c2C#N)cc1	%	44.9
COc1cc(/C=C2\CCCC3=C2N=C2SC(C)=CN2C3c2cc(OC)c(OC)c(OC)c2)cc(OC)c1OC (centres undefined)	%	20.4
Nc1ccc(/C=N/Nc2ccnc3c(O)cccc23)c2cccnc12	%	0.593
CCCCC/C=C/C/C=C/CCCCCCCC1=NC(C)(C)CN1C(C)C	%	-30.9
C=CCSC(CC)(CC)C(=O)NC	%	98.3
O=[N+]([O-])c1cc(Cl)cc(Cl)c1O	%	109
CC(=O)/C(=C/c1ccc(Br)cc1)C(=O)c1ccccc1	%	30.7
O=c1cn[nH]c2ccc(Br)cc12	%	95.7
O=C(CN(C1CCCCC1)C1CCCCC1)Nc1ccc(S(=O)(=O)c2ccc(NC(=O)CN(C3CCCCC3)C3CCCCC3)cc2)cc1	%	-29.8
CN(C)c1nc(N)c2nccnc2n1	%	128
COc1ccc(/C(C#N)=C/c2ccccc2OC)cc1	%	21
CCCCN1C(=O)CC(SC2CC(=O)N(CCCC)C2=O)C1=O (centres undefined)	%	118
CCOC(=O)C1=CSC2=NC3=C(CCC/C3=C\c3ccc(Cl)cc3)C(c3ccc(Cl)cc3)N12 (centres undefined)	%	92.7
CCNc1nc(C(F)(F)F)nc2c1sc(=S)n2-c1ccccc1	%	103
COc1cc2ncnc(NC3CCC(O)CC3)c2cc1OC (centres undefined)	%	58.2
CS(=O)(=O)c1nccc(-c2c(-c3cccc(OCCN4CCOCC4)c3)nc3sccn23)n1	%	91.5
O=C(Nc1cc(Cl)cc2c1-c1ccc(Cl)cc1C2O)C(Cl)Cl (centres undefined)	%	81.9
CC(=O)OC1C=CC(OC(C)=O)O1 (centres undefined)	%	91.1
O=C(Nc1nc(-c2ccccc2)nc2c1sc(=S)n2-c1ccccc1)C(F)(F)F	%	79.4
Cc1cc(=O)n2nnc3cc(C(F)(F)F)ccc3n12	%	99.1
COc1ccc(N=Nc2cc(OC)c(OC)c(OC)c2)cc1	%	69.4
Nc1nc(-c2ccc(Cl)cc2)cc(-c2cc3ccccc3oc2=O)n1	%	114
COc1cc(C2CC(c3ccccc3)=NN2C(C)=O)cc(OC)c1OC (centres undefined)	%	36.9
c1cncc(-c2csc(-c3c[nH]c4ccccc34)n2)c1	%	97.7
COc1ccc(Cl)cc1Nc1nc(C(F)(F)F)ccc1C(=O)N/N=C/c1ccc(Cl)cc1	%	28.6
Cc1ccc(NCCN(C)CC(C)O)c2c(=O)c3ccc(Cl)cc3sc12 (centres undefined)	%	-61.2
CCOC(=O)c1cc(C(=O)c2cc(OC)c(OC)c(OC)c2)n2ccc(-c3cc[n+](CC(=O)c4cc(OC)c(OC)c(OC)c4)cc3)cc12	%	-44.5
O=c1oc2c(cc1-c1ccc(F)cc1)C(O)Oc1ccccc1-2 (centres undefined)	%	66.7
Cc1c2c[n+](C(C)C)ccc2c(C)c2c1[nH]c1ccccc12	%	23.3
COc1ccc(/C(C#N)=C/c2cccc(OC)c2OC)cc1	%	33.3
O=C1c2ccccc2C(=O)N1CCCCNc1ccccc1	%	149
Nc1nccc(OCCO)n1	%	99.3
COc1cc2c(Nc3ccc(S(N)(=O)=O)cc3)ncnc2c(OC)c1OC	%	97.8
Cc1cc(CCNC=O)c(C)c2c1sc1ccccc12	%	97.2
CC(CN(C)C)Oc1ccccc1NC1=C(Cl)C(=O)C(Nc2ccccc2OC(C)CN(C)C)=C(Cl)C1=O (centres undefined)	%	-11.2
COc1cc(-c2ccc(N=Nc3ccc4c(S(=O)(=O)O)ccc(N)c4c3O)c(OC)c2)ccc1N=Nc1ccc2c(S(=O)(=O)O)ccc(N)c2c1O	%	121
COc1cc(-c2nn(-c3cccc(NC(=O)NCCNS(=O)(=O)c4ccc(Cl)cc4)c3)cc2-c2ccncc2)ccc1Cl	%	2.85
IC(I)I	%	120
COc1cc(NC(=O)Nc2cnc(Nc3ccc(N4CCOCC4)cc3)nc2Oc2cccc(OC)c2)cc(OC)c1	%	55.4
O=C1/C=C/[C@@H](O)[C@@H]2C[C@@H](O)C[C@H]2/C=C/CCC[C@@H](C(F)(F)F)O1	%	92
CC1CCCC(C(=O)O)C1C(=O)O (centres undefined)	%	87.6
CN1C(=O)C2(Nc3cc(Cl)ccc3S2)c2cc(Cl)ccc21 (centres undefined)	%	75.4
